Please provide measured CC50 at 48 h for the entries that follow.
experiment: MTT cell cytotoxicity assay; assay type: cell-based; conditions: human, Huh7, HepAD38, HepG2, HepG2.2.15 cells, cell line not stated, read-out: 50% cytotoxic concentration (CC50)
Numbers only, in µM.

Go through the list and state CC50 at 48 h for each entry.
1. CC(C)(C)c1ccc(S(=O)(=O)N=C2C=C(SCC(=O)O)C(=O)c3ccccc32)cc1 [KPT6566]
2. CC1=C(/C=C/C(C)=C/C=C/C(C)=C/C(=O)O)C(C)(C)CCC1 [ATRA, All-trans-retinoic acid]
3. O=c1c(-c2ccc(O)cc2)coc2cc(O)c(O)cc12 [6,7,4′-THIF]
4. O=C1C=CC(=O)c2c(O)cccc21 [Juglone, 5-hydroxyl-1,4-naphthoquinone]
5. CCOC(=O)CN1C(=O)c2ccc3c4c(ccc(c24)C1=O)C(=O)N(CC(=O)OCC)C3=O [PiB]
6. O=C(O[C@@H]1Cc2c(O)cc(O)cc2O[C@@H]1c1cc(O)c(O)c(O)c1)c1cc(O)c(O)c(O)c1 [EGCG, Epigallocatechin gallate]

1: 45; 2: 45; 3: 50; 4: 30; 5: 40; 6: 80
